# target-of-assay: PTPRF (Homo sapiens)
# Sequence (P10586 30-1907, species assumed): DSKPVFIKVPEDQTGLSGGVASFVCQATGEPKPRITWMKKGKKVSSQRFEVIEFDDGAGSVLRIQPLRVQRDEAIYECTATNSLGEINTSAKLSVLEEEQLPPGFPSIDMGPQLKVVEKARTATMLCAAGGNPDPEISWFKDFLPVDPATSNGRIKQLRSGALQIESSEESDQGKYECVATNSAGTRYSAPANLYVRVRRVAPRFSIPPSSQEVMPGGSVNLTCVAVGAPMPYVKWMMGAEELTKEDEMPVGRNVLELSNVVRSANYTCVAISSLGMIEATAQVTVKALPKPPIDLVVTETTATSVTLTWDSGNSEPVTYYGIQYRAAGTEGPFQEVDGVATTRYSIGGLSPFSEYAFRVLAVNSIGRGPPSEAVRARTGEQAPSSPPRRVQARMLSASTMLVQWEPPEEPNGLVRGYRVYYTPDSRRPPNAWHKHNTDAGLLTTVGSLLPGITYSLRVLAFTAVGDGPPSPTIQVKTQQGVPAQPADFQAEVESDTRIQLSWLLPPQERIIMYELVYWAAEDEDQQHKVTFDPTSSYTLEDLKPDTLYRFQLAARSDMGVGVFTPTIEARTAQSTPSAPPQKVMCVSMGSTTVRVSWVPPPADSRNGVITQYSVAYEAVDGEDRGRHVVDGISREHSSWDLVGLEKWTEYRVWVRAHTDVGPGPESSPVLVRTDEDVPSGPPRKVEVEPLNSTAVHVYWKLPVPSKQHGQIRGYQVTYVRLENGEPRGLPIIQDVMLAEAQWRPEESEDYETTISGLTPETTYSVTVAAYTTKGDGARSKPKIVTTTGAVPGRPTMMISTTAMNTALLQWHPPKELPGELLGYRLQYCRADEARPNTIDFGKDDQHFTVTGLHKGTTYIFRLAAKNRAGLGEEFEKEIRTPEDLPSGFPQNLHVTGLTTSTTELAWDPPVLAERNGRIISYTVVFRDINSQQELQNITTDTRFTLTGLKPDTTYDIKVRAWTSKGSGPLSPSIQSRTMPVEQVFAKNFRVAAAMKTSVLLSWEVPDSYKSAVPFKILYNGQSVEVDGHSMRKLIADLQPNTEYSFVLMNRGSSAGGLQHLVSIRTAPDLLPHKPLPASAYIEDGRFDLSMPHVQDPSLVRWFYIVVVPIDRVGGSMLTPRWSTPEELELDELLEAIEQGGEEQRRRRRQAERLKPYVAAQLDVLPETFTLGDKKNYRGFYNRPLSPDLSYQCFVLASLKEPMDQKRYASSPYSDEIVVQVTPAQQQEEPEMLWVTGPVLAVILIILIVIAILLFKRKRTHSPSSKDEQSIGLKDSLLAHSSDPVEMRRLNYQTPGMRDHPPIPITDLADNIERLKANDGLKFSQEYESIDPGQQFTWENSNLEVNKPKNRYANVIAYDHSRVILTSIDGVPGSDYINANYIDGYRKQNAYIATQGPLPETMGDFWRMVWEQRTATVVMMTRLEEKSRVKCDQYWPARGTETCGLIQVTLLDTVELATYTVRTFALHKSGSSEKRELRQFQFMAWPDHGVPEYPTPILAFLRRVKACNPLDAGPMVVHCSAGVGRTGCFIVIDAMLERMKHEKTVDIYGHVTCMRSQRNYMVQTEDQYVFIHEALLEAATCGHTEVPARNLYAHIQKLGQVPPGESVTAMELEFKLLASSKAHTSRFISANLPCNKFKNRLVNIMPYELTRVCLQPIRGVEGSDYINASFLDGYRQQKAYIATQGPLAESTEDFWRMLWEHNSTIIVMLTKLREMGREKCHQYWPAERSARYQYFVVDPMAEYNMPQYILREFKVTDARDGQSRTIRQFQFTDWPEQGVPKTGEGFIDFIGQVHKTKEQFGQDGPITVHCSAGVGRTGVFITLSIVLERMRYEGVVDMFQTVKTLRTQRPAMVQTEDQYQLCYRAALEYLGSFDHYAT
# protocol-description: pNPP hydrolysis by recombinant PTPRF phosphatase
# run-parameters: PTPRF IC50, untitled table after Table 4; mean, SEM in wrapped line
measurement-label: IC50 (µM)

A. COc1c(OCCCCc2ccc(O)cc2O)cc2c(c1C=O)CC(O)OC2=O (stereo not shown)
B. COc1c(OCC2CCCCC2)cc2c(c1C=O)CC(O)OC2=O (stereo not shown)
C. COc1c(OCC2CCCCCC2)cc2c(c1C=O)CC(O)OC2=O (stereo not shown)
D. COc1c(OCc2ccc(C)s2)cc2c(c1C=O)CC(O)OC2=O (stereo not shown)
Lookup: Order the records by IC50, with each subsequent value no larger than the one before. Answer format: list of labels, ordered as asked.
Found: A, D, C, B
(A: 6.8 µM, D: 3.5 µM, C: 1.16 µM, B: 0.76 µM)

----------
# target-of-assay: PTPRS (Homo sapiens, UniProt Q13332)
# protocol-description: pNPP hydrolysis by recombinant PTPRS phosphatase
# Assay type: biochemical
# run-parameters: Table 4; mean (SEM) of three independent experiments; * = instability, no valid triplicate
measurement-label: IC50 (nM)

compound	IC50, nM
COc1c(OCC2CCCCCC2)cc2c(c1C=O)CC(O)OC2=O (centres unmarked)	770
COc1c(OCc2ccc3ccccc3c2)cc2c(c1C=O)CC(O)OC2=O (centres unmarked)	4610
COc1c(OCc2ccc(C)cc2)cc2c(c1C=O)CC(O)OC2=O (centres unmarked)	3580
COc1c(OCc2c(Cl)cc(Cl)cc2Cl)cc2c(c1C=O)CC(O)OC2=O (centres unmarked)	2150
COc1c(OCCCCc2ccc(O)cc2O)cc2c(c1C=O)CC(O)OC2=O (centres unmarked)	2270

a. COc1c(OCC=C(C)C)cc2c(c1C=O)CC(O)OC2=O (centres unmarked)
b. COc1c(OCC2CCC2)cc2c(c1C=O)CC(O)OC2=O (centres unmarked)
c. COc1c(OCc2ccc(Br)cc2)cc2c(c1C=O)CC(O)OC2=O (centres unmarked)
d. COc1cccc(COc2cc3c(c(C=O)c2OC)CC(O)OC3=O)c1 (centres unmarked)
e. COc1c(OCCCc2ccccc2)cc2c(c1C=O)CC(O)OC2=O (centres unmarked)
Lookup: Which order do these items take when sorted by rising IC50? List them. Answer format: list of labels, ordered as asked.
Found: e, a, b, c, d
(e: 930 nM, a: 1800 nM, b: 3360 nM, c: 5000 nM, d: 13000 nM)

A. COc1c(OCCCCc2ccc(Cl)cc2)cc2c(c1C=O)CC(O)OC2=O (centres unmarked)
B. COc1c(OCc2ccc(C)s2)cc2c(c1C=O)CC(O)OC2=O (centres unmarked)
Lookup: Between A and B , which one shows the larger IC50 value? Response format: the label of the selected entry.
Found: A

1. COc1c(OCCc2ccccc2)cc2c(c1C=O)CC(O)OC2=O (centres unmarked)
2. COc1c(OCc2ccc(Oc3ccccc3)cc2)cc2c(c1C=O)CC(O)OC2=O (centres unmarked)
Lookup: Between 1 and 2 , which one shows the larger IC50 value? Response format: the label of the selected entry.
Found: 1

----------
# target-of-assay: UniProt P10586
# protocol-description: pNPP hydrolysis by recombinant PTPRF phosphatase
# run-parameters: PTPRF IC50, untitled table after Table 4; mean, SEM in wrapped line
measurement-label: IC50 (µM)

compound	IC50, µM
COc1c(OCC2CCCC2)cc2c(c1C=O)CC(O)OC2=O (stereo not drawn)	1.72
COc1c(OCc2ccccc2)cc2c(c1C=O)CC(O)OC2=O (stereo not drawn)	3.62
COc1c(OCCCc2ccccc2)cc2c(c1C=O)CC(O)OC2=O (stereo not drawn)	4.41
COc1c(OCC2CCC2)cc2c(c1C=O)CC(O)OC2=O (stereo not drawn)	4.52
COc1c(OCc2ccc3ccccc3c2)cc2c(c1C=O)CC(O)OC2=O (stereo not drawn)	5.87
COc1c(OCCC(C)C)cc2c(c1C=O)CC(O)OC2=O (stereo not drawn)	3.87

1. COc1c(OCc2ccc(Br)cc2)cc2c(c1C=O)CC(O)OC2=O (stereo not drawn)
2. COc1cccc(COc2cc3c(c(C=O)c2OC)CC(O)OC3=O)c1 (stereo not drawn)
3. COc1c(OCC=C(C)C)cc2c(c1C=O)CC(O)OC2=O (stereo not drawn)
Lookup: Which order do these items take when sorted by rising IC50? List them. Answer format: list of labels, ordered as asked.
Found: 3, 1, 2

----------
# target-of-assay: recombinant PTPRD (Homo sapiens)
# Sequence (P23468 21-1912): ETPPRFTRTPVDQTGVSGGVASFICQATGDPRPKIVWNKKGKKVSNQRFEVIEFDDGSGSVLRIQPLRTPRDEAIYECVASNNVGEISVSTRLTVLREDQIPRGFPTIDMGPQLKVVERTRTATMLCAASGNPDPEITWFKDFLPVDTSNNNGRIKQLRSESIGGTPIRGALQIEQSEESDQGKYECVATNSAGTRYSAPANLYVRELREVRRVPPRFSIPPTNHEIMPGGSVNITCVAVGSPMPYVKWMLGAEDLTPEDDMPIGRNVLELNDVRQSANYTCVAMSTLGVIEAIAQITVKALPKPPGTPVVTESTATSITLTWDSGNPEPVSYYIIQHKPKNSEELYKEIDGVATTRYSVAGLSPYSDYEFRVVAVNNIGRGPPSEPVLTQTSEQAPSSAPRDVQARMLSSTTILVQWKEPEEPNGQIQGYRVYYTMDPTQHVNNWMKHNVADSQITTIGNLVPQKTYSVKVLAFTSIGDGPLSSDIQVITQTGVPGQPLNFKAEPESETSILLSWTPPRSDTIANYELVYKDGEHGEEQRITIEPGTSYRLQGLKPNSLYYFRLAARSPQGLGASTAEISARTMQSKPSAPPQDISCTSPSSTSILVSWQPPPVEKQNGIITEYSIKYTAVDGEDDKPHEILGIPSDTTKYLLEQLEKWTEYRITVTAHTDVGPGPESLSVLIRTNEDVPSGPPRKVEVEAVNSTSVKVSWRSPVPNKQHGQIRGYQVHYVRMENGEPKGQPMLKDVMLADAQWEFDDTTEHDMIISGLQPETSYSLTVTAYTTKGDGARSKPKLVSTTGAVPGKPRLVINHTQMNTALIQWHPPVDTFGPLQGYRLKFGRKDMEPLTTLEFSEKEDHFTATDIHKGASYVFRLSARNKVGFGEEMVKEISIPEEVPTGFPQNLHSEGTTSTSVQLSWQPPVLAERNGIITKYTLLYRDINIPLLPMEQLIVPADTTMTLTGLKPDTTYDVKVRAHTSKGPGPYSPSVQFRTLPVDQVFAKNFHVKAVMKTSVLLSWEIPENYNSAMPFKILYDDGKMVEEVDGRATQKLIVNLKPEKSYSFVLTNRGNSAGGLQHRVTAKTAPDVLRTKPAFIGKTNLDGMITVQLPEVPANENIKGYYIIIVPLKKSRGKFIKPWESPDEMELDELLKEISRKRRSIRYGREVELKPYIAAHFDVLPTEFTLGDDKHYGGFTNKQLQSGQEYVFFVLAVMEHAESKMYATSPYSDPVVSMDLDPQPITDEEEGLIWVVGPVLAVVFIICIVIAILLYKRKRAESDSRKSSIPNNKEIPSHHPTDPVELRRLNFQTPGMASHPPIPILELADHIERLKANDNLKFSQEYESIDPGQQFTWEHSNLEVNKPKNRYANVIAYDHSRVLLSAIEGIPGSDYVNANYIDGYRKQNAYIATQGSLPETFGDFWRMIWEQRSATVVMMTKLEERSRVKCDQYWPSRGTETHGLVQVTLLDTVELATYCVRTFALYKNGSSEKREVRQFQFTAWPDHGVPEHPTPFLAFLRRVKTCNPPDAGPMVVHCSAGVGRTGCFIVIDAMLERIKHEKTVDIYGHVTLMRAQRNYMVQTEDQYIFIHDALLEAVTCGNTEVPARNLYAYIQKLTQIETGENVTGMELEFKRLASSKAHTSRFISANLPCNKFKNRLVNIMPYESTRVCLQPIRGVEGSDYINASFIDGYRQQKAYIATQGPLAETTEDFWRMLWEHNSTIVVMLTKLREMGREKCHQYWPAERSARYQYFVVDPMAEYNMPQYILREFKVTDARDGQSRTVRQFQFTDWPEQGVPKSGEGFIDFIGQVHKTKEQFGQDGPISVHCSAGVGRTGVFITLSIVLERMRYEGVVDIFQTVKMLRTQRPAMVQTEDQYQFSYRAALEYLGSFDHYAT
# protocol-description: pNPP hydrolysis by recombinant PTPRD phosphatase
# run-parameters: PTPRD IC50, Table 4; mean (SEM) of three independent experiments; * = instability, no valid triplicate
pIC50: −log10 of the molar value.
measurement-label: pIC50

compound	obs-value
COc1c(OCCCCc2ccc(O)cc2O)cc2c(c1C=O)CC(O)OC2=O (stereo not drawn) [Compound 55]	5.35
COc1c(OCCC(C)C)cc2c(c1C=O)CC(O)OC2=O (stereo not drawn) [Compound 58]	5.55
COc1c(OCC2CC2)cc2c(c1C=O)CC(O)OC2=O (stereo not drawn) [Compound 64]	5.38
COc1c(OCc2ccc(C)cc2)cc2c(c1C=O)CC(O)OC2=O (stereo not drawn) [Compound 29]	5.42
COc1c(OCCc2ccccc2)cc2c(c1C=O)CC(O)OC2=O (stereo not drawn) [Compound 50]	5.34
COc1c(OCC=C(C)C)cc2c(c1C=O)CC(O)OC2=O (stereo not drawn) [Compound 59]	5.49

----------
# target-of-assay: PTPRJ (Homo sapiens, UniProt Q12913)
# Construct: purchased
# Sequence (Q12913 36-1337, species assumed): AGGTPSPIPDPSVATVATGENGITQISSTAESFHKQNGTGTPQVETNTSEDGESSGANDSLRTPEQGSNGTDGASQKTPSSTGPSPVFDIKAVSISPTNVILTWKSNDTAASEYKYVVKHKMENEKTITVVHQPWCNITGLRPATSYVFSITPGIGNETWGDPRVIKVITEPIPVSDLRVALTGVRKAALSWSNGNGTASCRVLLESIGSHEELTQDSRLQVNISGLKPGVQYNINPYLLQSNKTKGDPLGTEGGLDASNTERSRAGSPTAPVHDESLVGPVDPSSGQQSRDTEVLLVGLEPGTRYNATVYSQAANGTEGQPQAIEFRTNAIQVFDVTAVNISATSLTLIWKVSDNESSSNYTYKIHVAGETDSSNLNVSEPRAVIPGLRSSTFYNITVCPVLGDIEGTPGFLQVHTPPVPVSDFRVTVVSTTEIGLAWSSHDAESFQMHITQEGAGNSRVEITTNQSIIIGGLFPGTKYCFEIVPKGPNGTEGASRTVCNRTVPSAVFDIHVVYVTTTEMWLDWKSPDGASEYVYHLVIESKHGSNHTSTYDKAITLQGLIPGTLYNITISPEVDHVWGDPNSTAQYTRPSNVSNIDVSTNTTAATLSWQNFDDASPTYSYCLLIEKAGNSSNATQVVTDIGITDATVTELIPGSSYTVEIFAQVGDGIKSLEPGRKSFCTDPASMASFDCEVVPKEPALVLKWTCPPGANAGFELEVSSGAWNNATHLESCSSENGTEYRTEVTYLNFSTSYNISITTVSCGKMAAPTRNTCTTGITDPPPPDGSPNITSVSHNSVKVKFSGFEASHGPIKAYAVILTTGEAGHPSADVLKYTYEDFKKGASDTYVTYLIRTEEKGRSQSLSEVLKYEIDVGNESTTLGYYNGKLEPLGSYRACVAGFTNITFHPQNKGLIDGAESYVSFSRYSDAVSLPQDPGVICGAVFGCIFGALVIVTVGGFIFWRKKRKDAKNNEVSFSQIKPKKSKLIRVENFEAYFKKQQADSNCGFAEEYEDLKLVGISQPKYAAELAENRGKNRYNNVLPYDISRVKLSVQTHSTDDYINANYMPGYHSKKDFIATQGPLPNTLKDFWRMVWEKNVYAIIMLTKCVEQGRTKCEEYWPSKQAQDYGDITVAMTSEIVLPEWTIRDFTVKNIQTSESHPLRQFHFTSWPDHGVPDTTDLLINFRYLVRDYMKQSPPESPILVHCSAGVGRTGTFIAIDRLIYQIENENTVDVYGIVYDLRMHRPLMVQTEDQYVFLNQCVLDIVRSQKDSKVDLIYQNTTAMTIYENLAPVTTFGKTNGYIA
# protocol-description: pNPP hydrolysis by PTPRJ phosphatase
# Format: biochemical
# run-parameters: untitled table after Table 4; mean, SEM in wrapped line
pIC50: −log10 of the molar value.
measurement-label: pIC50

Consider the worked cases shown below.
compound	pIC50
CCCCOc1cc2c(c(C=O)c1OC)CC(O)OC2=O (centres unmarked) [Compound 1, reference compound]	4.56
COc1c(OCC2CCC2)cc2c(c1C=O)CC(O)OC2=O (centres unmarked)	4.49
COc1c(OCC2CCCC2)cc2c(c1C=O)CC(O)OC2=O (centres unmarked)	4.53
COc1c(OCCCCc2ccc(Cl)cc2)cc2c(c1C=O)CC(O)OC2=O (centres unmarked)	4.54

A. COc1c(OCc2ccc(C)s2)cc2c(c1C=O)CC(O)OC2=O (centres unmarked)
B. COc1c(OCc2ccc3ccccc3c2)cc2c(c1C=O)CC(O)OC2=O (centres unmarked)
C. COc1c(OCCCCc2ccc(O)cc2O)cc2c(c1C=O)CC(O)OC2=O (centres unmarked)
D. COc1c(OCCCC(F)(F)F)cc2c(c1C=O)CC(O)OC2=O (centres unmarked)
Lookup: Which order do these items take when sorted by rising pIC50? List them. Answer format: list of labels, ordered as asked.
Found: D, C, B, A

----------
# target-of-assay: PTPRS (Homo sapiens)
# protocol-description: pNPP hydrolysis by recombinant PTPRS phosphatase
# Assay type: biochemical
# run-parameters: untitled table after Table 4; mean, SEM in wrapped line
pIC50: −log10 of the molar value.
measurement-label: pIC50

Consider the worked cases shown below.
molecule	pIC50
COc1cccc(COc2cc3c(c(C=O)c2OC)CC(O)OC3=O)c1 (stereo not shown)	5.49
COc1c(OCc2ccc(C)cc2)cc2c(c1C=O)CC(O)OC2=O (stereo not shown)	5.45
CCCCOc1cc2c(c(C=O)c1OC)CC(O)OC2=O (stereo not shown) [Compound 1, reference compound]	5.90
COc1c(OCc2ccc(Cl)cc2Cl)cc2c(c1C=O)CC(O)OC2=O (stereo not shown)	5.99

A. COc1c(OCCCc2ccccc2)cc2c(c1C=O)CC(O)OC2=O (stereo not shown)
B. COc1c(OCCc2ccccc2)cc2c(c1C=O)CC(O)OC2=O (stereo not shown)
Lookup: Between A and B , which one shows the larger pIC50 value? Response format: the label of the selected entry.
Found: A

----------
# target-of-assay: PTPRS (Homo sapiens, UniProt Q13332)
# protocol-description: pNPP hydrolysis by recombinant PTPRS phosphatase
# Assay type: biochemical
# run-parameters: Table 4; mean (SEM) of three independent experiments; * = instability, no valid triplicate
measurement-label: IC50 (nM)

compound	obs-value
COc1c(OCC2CCCCC2)cc2c(c1C=O)CC(O)OC2=O (stereo not drawn)	1060

P. COc1c(OCCC(C)C)cc2c(c1C=O)CC(O)OC2=O (stereo not drawn)
Q. COc1c(OCc2ccccc2)cc2c(c1C=O)CC(O)OC2=O (stereo not drawn)
R. COc1c(OCc2ccc(Cl)cc2Cl)cc2c(c1C=O)CC(O)OC2=O (stereo not drawn)
Lookup: Arrange the 3 compounds from largest to smallest IC50. Answer format: list of labels, ordered as asked.
Found: P, Q, R
(P: 2760 nM, Q: 1600 nM, R: 1030 nM)
